Source of measurements: PubChem BioAssay (NCATS)

Assay: NFAT Signaling Pathway (AID 444);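 note: carbachol stimulus at about its EC50 of 1 µM final; % is set by controls: 0 for no effect and ±100 for the full control effect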
Conditions: Jurkat NFAT-bla M1, carbachol, beta-lactamase ratio, 5 h; at 17.2 µM (top of the series)
Inconclusive results are not listed.
A collection of molecules and their measured activity change, negative = inhibition
Give a bare numeral; the unit % is implied.

Observe how each entry below is paired with its result.
C/C=C1\C[N@@+]2(C)CC[C@@]34C(=C(C=O)[C@H]1C[C@H]32)Nc1ccccc14
-3.46
CC(C)[C@@]1(NC(=O)[C@@H]2C[C@H]3c4cccc5[nH]cc(c45)C[C@@H]3N(C)C2)O[C@]2(O)[C@H]3CCCN3C(=O)[C@H](Cc3ccccc3)N2C1=O
1.85
COP(=O)(OC)[C@@H](O)C(Cl)(Cl)Cl
-11.8

# evaluate next
Q: Identify measured activity change, negative = inhibition corresponding to CNC(=O)N(C)c1nnc(C(C)(C)C)s1
A: -5.4
